target: Prostaglandin E2 receptor EP2 subtype (Homo sapiens); test: cAMP induction in EP2, EP4, beta2-AR and parental cells, confirmation, counter-screen for EP2 modulator project, cell-based, five parallel assays, C6 glioma, HEK293 (AID 1080); details: cAMP HTRF induction, screened at 20 µM (by protocol), percent of 1 uM PGE2 response, plus low (about EC15) PGE2 agonist
In all, about 1,300 compounds went through this assay and about 640 (49%) were called active.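 The calls were made as follows: active = cAMP induction above 50% in the main assay while under 30% in all four parallel counter assays; inactive = the rest.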 So high a share suggests a set chosen from earlier hits. Only a sample is shown.
// allowed return values: 1.0 (active), 0.0 (inactive)

Use the examples below as a reference point.
> print(dat)
                           structure.string  group
1         CC(=O)c1ccc2c(c1)c1ccccc1n2CC(C)C    1.0
2          Cc1ccccc1C(=O)Nc1ccccc1Sc1ccccc1    1.0
3  CC(C)Oc1ccc(Cc2n[nH]c(=S)n2Cc2ccccc2)cc1Cl    0.0
4          CSc1nc2ccccc2c(=O)n1Cc1ccc(F)cc1    0.0
5    NC(=O)COc1ccc(C23CC4CC(CC(C4)C2)C3)cc1    1.0

QUERY: Short answer needed: outcome of this test for O=C(COC(=O)c1ccccc1)Nc1ccccc1Sc1ccccc1 ?
RESULT: 1.0

QUERY: Short answer needed: outcome of this test for Cc1cc(C#N)c(SCC(N)=O)nc1-c1ccc(F)cc1 ?
RESULT: 1.0
